Hey, just so you know, these numbers are from patent US20060063759A1.

biological target: glucocorticoid receptor (Homo sapiens); construct: containing 50-200 ug of A549 cell extract and 1.86 nM [^3H]-dexamethasone; host or cells: A549 human lung epithelial cells (sonicated cell extract); test: Glucocorticoid Receptor Binding Assay ([3H]-dexamethasone, A549 cell extract); conditions: [3H]-dexamethasone binding, read-out: GR Ki
pKi: −log10 of the molar value.
pKi for assorted molecules
measured quantity: pKi

• CS(=O)(=O)Nc1cccc(C(CO)=C2c3ccccc3CCc3ccccc32)c1 [Example 755] = > 6.30
• Oc1ccc(C=C2c3ccccc3CCc3cc(Cl)ccc32)cc1 [Example 180] = > 6.00
• Oc1ccc(C=C2c3ccccc3CCc3c(Cl)cccc32)cc1 (mixture of isomers) [Example 212] = > 6.00
• Cc1ccc2c(c1)CCc1ccccc1C2=Cc1cccc(NS(C)(=O)=O)c1 [Example 302] = > 6.30
• O=c1[nH]c2ccc(/C=C3\c4ccc(F)cc4CCc4ncsc43)cc2[nH]1 [Example 565] = > 5.00
• N#Cc1cccc(C=C2c3ccccc3CCc3ccccc32)c1 [Example 81] = > 5.00
• CS(=O)(=O)Nc1cccc(/C=C2\c3ccccc3COc3cc(C(F)(F)F)ccc32)c1 [Example 683] = > 6.30
• O=C(Nc1ccc(C=C2c3ccccc3CCc3ccccc32)cc1)c1ccncc1 [Example 117] = > 6.30
• COc1cccc2c1OCc1ccccc1/C2=C\c1cccc(NS(C)(=O)=O)c1 [Example 271] = > 6.30
• Cc1ccc2c(c1)CCc1ccccc1C2=Cc1ccc(NS(C)(=O)=O)cc1 [Example 309] = > 6.00
• CS(=O)(=O)Nc1cccc(/C=C2/c3cc(Cl)ccc3COc3ccccc32)c1 [Example 728] = > 6.30
• COC(=O)c1ccc2c(c1)/C(=C\c1cccc(NS(C)(=O)=O)c1)c1ccccc1CO2 [Example 659] = > 5.00
• COC(=O)c1ccc2c(c1)CCc1ccccc1/C2=C/c1cccc(NS(C)(=O)=O)c1 [Example 387] = > 6.30
• CS(=O)(=O)Nc1cccc(/C=C2/c3ccc(Cl)cc3COc3ccccc32)c1 [Example 726] = > 6.30
• CCS(=O)(=O)Nc1cccc(C=C2c3ccccc3CCc3cc(OC)ccc32)c1 (mixture of isomers) [Example 163] = > 6.30
• C/C(=C1/c2ccccc2COc2ccccc21)c1cccc(NS(C)(=O)=O)c1 [Example 796] = > 6.30
• C(=C1c2ccccc2CCc2ccccc21)c1cn[nH]c1 [Example 439] = > 6.30

----------
biological target: human MR (Homo sapiens); construct: The full length human MR gene is cloned from a human kidney or human brain cDNA library; His tag from the pAcHLT vector (own knowledge); made in house; host or cells: Sf9 insect cells (baculovirus, pAcHLT transfer vector); assay: Mineralocorticoid Receptor Binding Assay ([3H]-aldosterone); conditions: [3H]-aldosterone binding, human MR expressed in Sf9 cells; read-out: MR Ki
Sequence (P08235 whole entry): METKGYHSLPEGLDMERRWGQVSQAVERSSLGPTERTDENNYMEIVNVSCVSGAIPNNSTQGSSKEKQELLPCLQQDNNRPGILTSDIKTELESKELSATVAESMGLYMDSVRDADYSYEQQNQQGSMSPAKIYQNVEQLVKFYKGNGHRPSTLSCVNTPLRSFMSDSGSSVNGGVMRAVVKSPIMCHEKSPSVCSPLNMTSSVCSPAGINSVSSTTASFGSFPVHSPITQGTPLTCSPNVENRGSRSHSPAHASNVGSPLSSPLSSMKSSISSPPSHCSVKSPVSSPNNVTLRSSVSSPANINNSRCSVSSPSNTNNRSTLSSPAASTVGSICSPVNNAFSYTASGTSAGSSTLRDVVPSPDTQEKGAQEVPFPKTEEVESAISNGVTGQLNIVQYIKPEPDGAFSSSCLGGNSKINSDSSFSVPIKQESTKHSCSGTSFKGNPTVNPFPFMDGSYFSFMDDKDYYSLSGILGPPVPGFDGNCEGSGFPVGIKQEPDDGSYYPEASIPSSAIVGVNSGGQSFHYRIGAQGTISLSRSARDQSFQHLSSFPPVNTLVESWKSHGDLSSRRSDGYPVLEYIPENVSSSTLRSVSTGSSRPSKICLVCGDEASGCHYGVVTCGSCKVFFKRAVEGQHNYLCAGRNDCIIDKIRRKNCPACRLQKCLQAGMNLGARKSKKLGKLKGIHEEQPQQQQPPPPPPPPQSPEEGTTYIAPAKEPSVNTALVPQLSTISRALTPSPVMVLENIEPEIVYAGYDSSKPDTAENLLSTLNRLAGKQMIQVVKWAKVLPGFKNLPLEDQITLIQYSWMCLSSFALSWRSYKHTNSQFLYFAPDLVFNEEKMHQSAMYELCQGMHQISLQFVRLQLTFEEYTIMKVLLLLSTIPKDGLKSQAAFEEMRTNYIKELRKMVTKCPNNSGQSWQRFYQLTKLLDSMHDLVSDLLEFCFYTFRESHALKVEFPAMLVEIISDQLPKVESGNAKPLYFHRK
pKi: −log10 of the molar value.
pKi for assorted compounds
measured quantity: pKi

* COc1ccc2c(c1)CCc1cc(C)ccc1/C2=C(\C)c1cccc(NS(C)(=O)=O)c1 | > 6.30
* COc1ccc2c(c1)CCc1ccccc1C2=Cc1cccc(O)c1 (mixture of isomers) | > 6.30
* Cc1cccc2c1OCc1ccccc1/C2=C\c1cccc(NS(C)(=O)=O)c1 | > 6.30
* Fc1ccc(/C=C2\c3ccc(F)cc3CCc3ncccc32)cc1 | > 6.30
* COC(=O)Nc1cccc(C=C2c3ccccc3CCc3cc(Cl)ccc32)c1 | > 6.30
* Nc1cccc(C(=C2c3ccccc3CCc3ccccc32)c2ccc(-c3ccccc3)cc2)c1 | > 6.30
* Fc1ccc2c(c1)CCc1ncccc1/C2=C/c1cccc(C(F)F)c1 | > 6.30
* CS(=O)(=O)Nc1cccc(/C=C2\c3ccccc3CCc3cc(C(F)F)ccc32)c1 | > 6.30
* CS(=O)(=O)Nc1cccc(/C=C2/c3ccccc3CCc3c2cccc3C(F)F)c1 | > 6.30
* Fc1ccc2c(c1)CCc1ncccc1/C2=C\c1ccccc1 | > 6.30
* Cn1c(=O)[nH]c2cc(/C=C3/c4ccccc4COc4cc(F)ccc43)ccc21 | > 6.30
* CC(=C1c2ccccc2CCc2cc(C)ccc21)c1cccc(NS(C)(=O)=O)c1 | > 6.30
* COc1ccc2c(c1)CCc1cc(OC)ccc1C2=Cc1cccc(NS(C)(=O)=O)c1 | > 6.30
* O=c1[nH]c2ccc(/C=C3\c4ccccc4CCc4ncsc43)cc2[nH]1 | > 6.30
* CN(c1cccc(C=C2c3ccccc3CCc3cc(Cl)ccc32)c1)S(C)(=O)=O | > 6.30
* COc1ccc2c(c1)CSc1ccccc1C2=C(C)c1cccc(NS(C)(=O)=O)c1 | > 6.30
* C/C(=C1\c2ccccc2CCc2cc(C)ccc21)c1cccc(NS(C)(=O)=O)c1 | > 6.30
* CS(=O)(=O)Nc1cccc(/C=C2\c3ccccc3NC(=O)c3ccccc32)c1 | > 6.30
* CS(=O)(=O)Nc1cccc(/C=C2\c3scnc3CCc3cccc(Cl)c32)c1 | > 6.30
* CS(=O)(=O)Nc1cccc(C=C2c3ccccc3CCc3ccc(F)cc32)c1 (mixture of isomers) | > 6.30
* Fc1ccc2c(c1)CCc1ncccc1/C2=C/c1cccc(C(F)(F)F)c1 | > 6.30
* Oc1cccc(/C=C2\c3ccccc3CCc3cc(C(F)F)ccc32)c1 | > 6.30
* Cc1cccc2c1OCc1ccccc1/C2=C/c1cccc(NS(C)(=O)=O)c1 | > 6.30
* COC(=O)c1ccccc1/C=C1\c2ccc(F)cc2CCc2ncccc21 | > 6.30
* CNc1cccc(C=C2c3ccccc3CCc3ccccc32)c1 | > 6.30
* CS(=O)(=O)Nc1cccc(/C=C2\c3ccccc3CSc3ccccc32)c1 | > 6.30
* O=c1[nH]c2cc(/C=C3/c4ccccc4CCc4cc(F)ccc43)ccc2s1 | > 6.30
* COc1ccc(OC)c(C=C2c3ccccc3CCc3ccccc32)c1 | > 6.30
* CS(=O)(=O)Nc1cccc(/C=C2/c3ccccc3CCc3ccc(O)cc32)c1 | > 6.30
* O=S(=O)(CC(F)(F)F)Nc1cccc(C=C2c3ccc(Cl)cc3CSc3cc(Cl)ccc32)c1 | > 6.30
* Cc1cccc2c1CCc1ccccc1C2=Cc1cccc(NS(C)(=O)=O)c1 | > 6.30
* Cc1cc(C)cc(C=C2c3ccccc3CCc3sccc32)c1 | > 6.30
* Cc1ccc(NS(C)(=O)=O)cc1C=C1c2ccccc2CCc2ccccc21 | > 6.30
* C/C(=C1\c2ccccc2CCc2cc(Cl)ccc21)c1cccc(NS(C)(=O)=O)c1 | > 6.30
* Fc1cccc2c1CCc1ncccc1C2=Cc1cccc(Cl)c1 | > 6.30

----------
melting point for assorted molecules
measured quantity: melting point (°C)

• CN(C)S(=O)(=O)c1cccc(C=C2c3ccccc3CCc3ccccc32)c1 = 167.3
• Cc1cc(S(=O)(=O)N(C)C)c(C=C2c3ccccc3CCc3ccccc32)cc1Cl = 199.9
• CNS(=O)(=O)c1ccc(C=C2c3ccccc3CCc3ccccc32)cc1 = 189.7
• FC(F)Oc1cccc(C=C2c3ccccc3CCc3ccccc32)c1 = 91.3
• Cc1noc(C)c1S(=O)(=O)Nc1cccc(C=C2c3ccccc3CCc3ccccc32)c1 = 149.3
• COc1ccccc1C=C1c2ccccc2CCc2ccccc21 = 129.3
• CC(=O)Nc1ccccc1C=C1c2ccccc2CCc2ccccc21 = 189.7

----------
biological target: glucocorticoid receptor (Homo sapiens, UniProt P04150); construct: containing 50-200 ug of A549 cell extract and 1.86 nM [^3H]-dexamethasone; host or cells: A549 human lung epithelial cells (sonicated cell extract); assay: Glucocorticoid Receptor Binding Assay ([3H]-dexamethasone, A549 cell extract); settings: [3H]-dexamethasone binding, read-out: GR Ki
Sequence (P04150 whole entry): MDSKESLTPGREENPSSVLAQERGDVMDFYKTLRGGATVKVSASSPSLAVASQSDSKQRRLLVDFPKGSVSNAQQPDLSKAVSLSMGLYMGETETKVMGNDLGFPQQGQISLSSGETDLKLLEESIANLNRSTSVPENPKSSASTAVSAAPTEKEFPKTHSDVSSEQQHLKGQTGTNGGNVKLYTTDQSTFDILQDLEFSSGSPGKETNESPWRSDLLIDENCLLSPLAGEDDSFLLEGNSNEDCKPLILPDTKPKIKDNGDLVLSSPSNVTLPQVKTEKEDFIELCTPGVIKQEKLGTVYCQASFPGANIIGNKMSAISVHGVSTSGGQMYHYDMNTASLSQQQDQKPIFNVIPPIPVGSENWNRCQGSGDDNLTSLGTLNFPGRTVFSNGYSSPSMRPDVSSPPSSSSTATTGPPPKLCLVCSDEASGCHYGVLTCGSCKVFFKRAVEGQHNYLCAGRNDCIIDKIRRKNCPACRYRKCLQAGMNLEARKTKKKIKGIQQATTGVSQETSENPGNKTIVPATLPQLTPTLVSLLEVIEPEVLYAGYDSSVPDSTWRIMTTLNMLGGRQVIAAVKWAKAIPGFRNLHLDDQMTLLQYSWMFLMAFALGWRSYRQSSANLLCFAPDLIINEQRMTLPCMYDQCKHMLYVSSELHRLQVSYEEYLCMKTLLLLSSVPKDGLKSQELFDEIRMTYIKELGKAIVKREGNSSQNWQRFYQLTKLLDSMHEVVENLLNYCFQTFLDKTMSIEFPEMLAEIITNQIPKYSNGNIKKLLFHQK
pKi: −log10 of the molar value.
measured quantity: pKi

- O=c1[nH]c2cc(/C=C3/c4ccccc4CCc4c(Cl)cccc43)ccc2o1: > 6.30
- Nc1ccccc1/C=C1/c2ccc(F)cc2CCc2ncccc21: > 6.30
- Oc1cccc(C=C2c3ccccc3CCc3c2ccc(Cl)c3Cl)c1: > 6.30
- CS(=O)(=O)Nc1cccc(/C=C2/c3ccccc3CCc3ncccc32)c1: > 6.30
- COC(=O)c1cccc(/C=C2\c3ccc(F)cc3CCc3ncccc32)c1: > 5.00
- Cc1ccc(NS(C)(=O)=O)cc1C=C1c2ccccc2CCc2ccccc21: > 6.00
- N#Cc1cccc2c1CCc1ccccc1/C2=C\c1cccc(O)c1: > 6.30
- Cc1cccc2c1OCc1ccccc1/C2=C\c1cccc(NS(C)(=O)=O)c1: > 6.30
- C/C(=C1/c2ccccc2COc2c(F)cccc21)c1cccc(NS(C)(=O)=O)c1: > 6.30
- CC(C)n1c(=O)[nH]c2cc(/C=C3\c4ccccc4COc4cc(F)ccc43)ccc21: > 5.00
- CS(=O)(=O)Nc1cccc(/C=C2\c3cccnc3CCc3c(Cl)cccc32)c1: > 5.00
- CCS(=O)(=O)Nc1cccc(C=C2c3ccccc3CCc3c(Cl)cccc32)c1 (mixture of isomers) [Example 208(a)]: > 6.30
- CS(=O)(=O)Nc1cccc(C=C2c3ccccc3CCc3cc(OCCN4CCOCC4)ccc32)c1: > 5.00
- Fc1ccc2c(c1)CCc1ncccc1/C2=C\c1ccccc1F: > 5.00
- COc1ccc2c(c1)/C(=C/c1cccc(NS(C)(=O)=O)c1)c1ccccc1CO2: > 6.30
- O=S(=O)(Nc1cccc(/C=C2\c3ccccc3CSc3ccccc32)c1)c1ccccc1: > 6.30
- O=c1[nH]c2ccc(/C=C3\c4ccccc4CCc4cccc(Cl)c43)cc2[nH]1: > 6.00
- Oc1cccc(C=C2c3ccccc3CCc3ccccc32)c1: > 6.30
- O=c1[nH]c2cc(/C=C3\c4ccccc4COc4ccccc43)ccc2o1: > 6.30
- CN1C(=O)c2ccccc2C(=Cc2cccc(NS(C)(=O)=O)c2)c2ccccc21: > 5.00
- COc1ccc2c(c1)COc1cc(F)ccc1/C2=C(\C)c1cccc(NS(C)(=O)=O)c1: > 6.30
- CS(=O)(=O)Nc1cccc(C=C2c3ccc(Cl)cc3CSc3cc(Cl)ccc32)c1: > 5.00
- CS(=O)(=O)Nc1cccc(/C=C2/c3ccccc3COc3cc(C(F)(F)F)ccc32)c1: > 6.30
- Cc1ccccc1CC1c2ccccc2CCc2ccccc21: > 6.30
- CS(=O)(=O)Nc1cccc(/C=C2\c3ccccc3COc3cc(Cl)ccc32)c1: > 6.30
- CS(=O)(=O)Nc1cccc(C=C2c3ccccc3CCc3cc(F)ccc32)c1: > 6.30
- O=c1[nH]c2ccc(C=C3c4ccc(F)cc4COc4cc(F)ccc43)cc2[nH]1: > 6.00
- CC(=O)Nc1cccc(/C=C2\c3ccccc3CSc3ccccc32)c1: > 6.30
- CS(=O)(=O)Nc1cccc(/C=C2/c3ccccc3COc3cc(F)ccc32)c1: > 6.30
- CS(=O)(=O)Nc1cccc(/C=C2/c3ccc(F)cc3CCc3ncccc32)c1: > 5.00
- CS(=O)(=O)Nc1cccc(/C=C2/c3ccccc3CSc3cc(F)ccc32)c1: > 6.30
- Oc1cccc(C=C2c3ccccc3CCc3ccc(F)cc32)c1 (mixture of isomers): > 6.30
- CSc1ccc2c(c1)C(=Cc1cccc(NS(C)(=O)=O)c1)c1ccccc1CC2: > 6.30
- CS(=O)(=O)Nc1cccc(C=C2c3ccccc3C3C(c4ccccc42)C3(Cl)Cl)c1 (centres unmarked): > 5.00
- CS(=O)(=O)Nc1ccc(/C=C2/c3ccc(F)cc3CCc3ncccc32)cc1: > 5.00
